molecular target: Bromodomain and PHD finger-containing protein 3 (Homo sapiens, UniProt Q9ULD4); assay: Binding affinity to human partial length BRPF3 (E588 to G701 residues) expressed in bacterial expression system by BROMOscan assay
Sequence (Q9ULD4 whole entry, the tested form may be a part): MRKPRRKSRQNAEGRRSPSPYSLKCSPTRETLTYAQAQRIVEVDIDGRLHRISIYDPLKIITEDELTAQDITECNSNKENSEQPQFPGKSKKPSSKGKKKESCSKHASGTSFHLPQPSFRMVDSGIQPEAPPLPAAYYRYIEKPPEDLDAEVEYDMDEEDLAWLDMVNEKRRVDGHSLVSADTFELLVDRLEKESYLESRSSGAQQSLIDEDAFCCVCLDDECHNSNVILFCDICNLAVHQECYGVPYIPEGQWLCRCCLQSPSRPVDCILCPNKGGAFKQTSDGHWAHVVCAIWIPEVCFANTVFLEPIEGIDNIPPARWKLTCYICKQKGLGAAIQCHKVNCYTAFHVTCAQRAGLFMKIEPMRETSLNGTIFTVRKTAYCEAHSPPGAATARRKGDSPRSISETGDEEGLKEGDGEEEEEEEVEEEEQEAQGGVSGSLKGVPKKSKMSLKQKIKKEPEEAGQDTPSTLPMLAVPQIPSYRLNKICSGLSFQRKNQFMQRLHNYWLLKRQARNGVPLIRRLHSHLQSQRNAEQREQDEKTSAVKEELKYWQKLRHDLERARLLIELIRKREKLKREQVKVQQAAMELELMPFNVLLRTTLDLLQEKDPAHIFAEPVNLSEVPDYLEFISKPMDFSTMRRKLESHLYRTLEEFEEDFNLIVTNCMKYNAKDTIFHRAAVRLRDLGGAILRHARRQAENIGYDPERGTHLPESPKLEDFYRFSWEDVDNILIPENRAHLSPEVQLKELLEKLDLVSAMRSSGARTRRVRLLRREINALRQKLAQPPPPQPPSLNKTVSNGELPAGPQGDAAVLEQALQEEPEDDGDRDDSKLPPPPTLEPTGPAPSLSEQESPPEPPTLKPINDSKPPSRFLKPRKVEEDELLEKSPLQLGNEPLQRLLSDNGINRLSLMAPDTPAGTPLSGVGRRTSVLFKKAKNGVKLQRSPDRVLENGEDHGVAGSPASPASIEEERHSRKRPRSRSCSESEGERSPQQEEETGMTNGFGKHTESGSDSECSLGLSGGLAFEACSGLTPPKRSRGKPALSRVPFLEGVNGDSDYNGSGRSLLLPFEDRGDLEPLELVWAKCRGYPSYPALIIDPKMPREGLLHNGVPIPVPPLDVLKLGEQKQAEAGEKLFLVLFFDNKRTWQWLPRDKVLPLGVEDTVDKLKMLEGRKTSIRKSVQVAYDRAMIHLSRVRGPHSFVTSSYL
pKd: −log10 of the molar value.

>  <givenSmiles>
CCS(=O)(=O)Nc1cc(-c2cn(C)c3c(=O)[nH]ccc23)cc2c1ccn2C(C)(c1ccccn1)c1ccccn1

>  <pKd>
< 5.00

$$$$

###

assay: Clearance in CD1 mouse at 5 mg/kg, iv by LC-MS/MS analysis; type: ADME, organism-based; settings: in vivo

>  <givenSmiles>
CCS(=O)(=O)Nc1cc(-c2cn(C)c3c(=O)[nH]ccc23)cc2c1ccn2C(C)(c1ccccn1)c1ccccn1.Cl

>  <clearance / mL/min/kg>
25.5

$$$$
